Test system: MCF7
Assay: NCI tumour cell line growth inhibition, 48 h
Calls of active or inactive are those of the source. Cut-off read from the data, not from the text of the source: active = GI50 up to about 1.1 µM and inactive = higher.
Hi! Could you answer with just one of these? true = active, false = inactive

O=c1[nH]/c(=C/c2ccc(OCc3ccccc3)cn2)c(=O)[nH]/c1=C/c1ccc(F)cc1 :: true

Query :: Status in this test for `CC1(C)CC(=O)c2c(nc(SSc3nc4c(c(-c5ccccc5)c3C#N)C(=O)CC(C)(C)C4)c(C#N)c2-c2ccccc2)C1` ?
Result :: false

Query :: Status in this test for `O=C1c2ccccc2C2=Nc3ccncc3CN12` ?
Result :: false

Query :: Status in this test for COc1c(O)cc2c(c1O)C(=O)C(Cc1ccc(O)cc1)CO2 (configuration not stated) ?
Result :: false

Query :: Status in this test for `CC(=O)O[C@H]1CC[C@@]2(C)C(=CC[C@H]3[C@@H]4C[C@H](N5CCOCC5)[C@H](OC(C)=O)[C@@]4(C)CC[C@@H]32)C1` ?
Result :: false

Query :: Status in this test for COP(=O)(O)/C=C/C(NC(=O)C(Cl)(Cl)Cl)c1ccccc1 (configuration not stated) ?
Result :: false

Query :: Status in this test for `Cc1nc2c(o1)C(=O)c1ccccc1/C2=N/c1ccccn1` ?
Result :: false

Query :: Status in this test for `O=C(Cc1ccccc1)NN1C(=O)/C(=C\c2ccc([N+](=O)[O-])cc2)S/C1=N\c1ccccc1` ?
Result :: false

Query :: Status in this test for `Cc1csc(-n2nc(C)cc2C)n1` ?
Result :: false

Query :: Status in this test for `Clc1ccc(OCc2nnc(CCCCCCCCc3nnc(COc4ccc(Cl)cc4Cl)o3)o2)c(Cl)c1` ?
Result :: false

Query :: Status in this test for `O=C(N(C1=CCCC1)N(c1ccccc1)c1ccccc1)C(F)(F)F` ?
Result :: false

Query :: Status in this test for `CCOC(=O)Cc1ccc(Nc2nc3cc(F)c(F)cc3nc2C(=O)OCC)cc1` ?
Result :: false

Query :: Status in this test for C=CCCCN1C(=O)C2C3c4ccccc4C(C=O)(c4ccccc43)C2C1=O (configuration not stated) ?
Result :: false

Query :: Status in this test for `C=CC(=O)N1C/C(=C\c2ccc(N(C)C)cc2)C(=O)/C(=C/c2ccc(N(C)C)cc2)C1` ?
Result :: false

Query :: Status in this test for `Cc1c(C#N)c2nc3ccccc3n2c(=O)/c1=C/Nc1ccc(Cl)cc1` ?
Result :: false

Query :: Status in this test for `Cc1ncc([N+](=O)[O-])n1CCNC(=O)CCC(=O)NCCCn1ccnc1[N+](=O)[O-]` ?
Result :: false

Query :: Status in this test for `O=c1n(CCCN2CCOCC2)nc2n1-c1ccc3ccccc3c1SC2` ?
Result :: false

Query :: Status in this test for `CN(C)c1ccc(/C=C2\C[C@H]3[C@@H]4CCc5cc(OCCN6CCCC6)ccc5[C@H]4CC[C@]3(C)[C@H]2O)cc1` ?
Result :: false

Query :: Status in this test for CC1CCC2C(C(=O)O[C@H]3C4C=CO[C@@H](OC5OC(CO)C(O)C(O)C5O)C4[C@@]4(CO)O[C@@H]34)=CO[C@@H](OC3OC(CO)C(O)C(O)C3O)C12 (some centres not stated) ?
Result :: false

Query :: Status in this test for `O=C1/C(=C/c2ccc(Cl)cc2)N=C(c2ccccc2)N1c1ccc(S(=O)(=O)Nc2nccs2)cc1` ?
Result :: false

Query :: Status in this test for `Cc1ccccc1Nc1nc2ccccc2nc1NS(=O)(=O)c1ccccc1` ?
Result :: false
